For each of the molecules below, state its Emax.
TEST SYSTEM: NOP (Homo sapiens, UniProt P41146)
Construct: expressed in transfected cells; host or cells: CHO cells (membranes)
Sequence (P41146 whole entry): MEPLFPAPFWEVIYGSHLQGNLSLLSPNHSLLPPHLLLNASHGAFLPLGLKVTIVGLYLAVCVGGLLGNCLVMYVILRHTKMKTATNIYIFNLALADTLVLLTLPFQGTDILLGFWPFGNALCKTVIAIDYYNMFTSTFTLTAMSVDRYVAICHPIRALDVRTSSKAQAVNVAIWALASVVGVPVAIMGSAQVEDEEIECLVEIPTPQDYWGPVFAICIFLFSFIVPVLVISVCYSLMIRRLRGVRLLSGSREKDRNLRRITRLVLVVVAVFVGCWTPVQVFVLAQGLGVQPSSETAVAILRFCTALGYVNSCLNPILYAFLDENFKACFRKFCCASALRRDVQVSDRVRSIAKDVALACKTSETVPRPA
TEST METHOD NOTES: [35S]GTPγS binding, NOP
Format: biochemical
PROTOCOL CONDITIONS: 1 h; read-out: % stim NOP
Procedure: [^35S]GTPγS binding was conducted basically as described by Traynor and Nahorski (Traynor et al., 1995). Cells were scraped from tissue culture dishes into 20 mM Hepes, 1 mM EDTA, then centrifuged at 500×g for 10 min. Cells were resuspended in this buffer and homogenized using a Polytron Homogenizer. […] Samples were filtered over glass fiber filters and counted as described for the binding assays. […]
Answers are plain numbers, in %.

Illustrative cases are given below, each with its answer.
INSERT INTO assay_data (compound, recorded_endpoint, reading) VALUES
  ('O=C(CCc1ccccc1)O[C@@]12CCC(=O)[C@@H]3Oc4c(O)ccc5c4[C@@]31CCN(CC1CC1)C2C5', 'Emax', 34),
  ('O=C(Cc1ccccc1)O[C@@]12CCC(=O)[C@@H]3Oc4c(O)ccc5c4[C@@]31CCN(CC1CC1)C2C5', 'Emax', 28),
  ('O=C(Cc1ccc(Cl)cc1)O[C@@]12CCC(=O)[C@@H]3Oc4c(O)ccc5c4[C@@]31CCN(CC1CC1)C2C5', 'Emax', 19),
  ('O=C(Cc1ccc2c(c1)OCO2)O[C@@]12CCC(=O)[C@@H]3Oc4c(O)ccc5c4[C@@]31CCN(CC1CC1)C2C5', 'Emax', 44),
  ('Cc1ccc(CCC(=O)O[C@@]23CCC(=O)[C@@H]4Oc5c(O)ccc6c5[C@@]42CCN(CC2CC2)C3C6)cc1', 'Emax', 63),
  ('Cc1cccc(CC(=O)O[C@@]23CCC(=O)[C@@H]4Oc5c(O)ccc6c5[C@@]42CCN(CC2CC2)C3C6)c1', 'Emax', 59);

Task: Which Emax value is on record for Cc1ccccc1CC(=O)O[C@@]12CCC(=O)[C@@H]3Oc4c(O)ccc5c4[C@@]31CCN(CC1CC1)C2C5 ?
Output: 21
